All values here come from the supplement of paper PMC5412046.

# Tested on: SB.msgc-1
# Assay Summary: area under the dose-response curve of % viability (trapezoidal, 11 doses) (% viability x log10 concentration); higher = less cytotoxic
# Condition Notes: SB.msgc-1 (sporadic gastric cancer)
Structures can show the parent of a compound that is named as a salt.
Kind request: treat 500 as inclusive, so area under the dose-response curve at 500 or higher is true (1), anything lower is false (0).

CC[C@]1(O)C[C@@H]2CN(CCc3c([nH]c4ccccc34)[C@@](C(=O)OC)(c3cc4c(cc3OC)N(C)[C@H]3[C@@](O)(C(N)=O)[C@H](O)[C@]5(CC)C=CCN6CC[C@]43[C@@H]65)C2)C1 [Vindesine sulfate] (top concentration 46.0829 µM)	false (0)
CC[C@H](NC(=O)[C@H](C)NC)C(=O)N1C[C@@H](O)C[C@H]1Cc1c(-c2[nH]c3cc(F)ccc3c2C[C@@H]2C[C@H](O)CN2C(=O)[C@H](CC)NC(=O)[C@H](C)NC)[nH]c2cc(F)ccc12 [Birinapant] (top concentration 46.0829 µM)	false (0)
COc1cc2ncnc(Nc3cccc(Cl)c3)c2cc1OC [AG-1478] (top concentration 46.0829 µM)	false (0)
CC1=CC=C2N=C(NC(=O)CS\C3=N\C4=C(\SCC4)C(=O)N3C5=CC=CC=C5)SC2=C1 [IWP-2] (top concentration 46.0829 µM)	false (0)
C[C@@H]1C(=O)O[C@H]2CC34[C@H]5C[C@@H](C(C)(C)C)C36[C@@H](OC(=O)[C@@H]6O)O[C@@]4(C(=O)O5)[C@]21O (stereo not given in full) [Ginkgolide A] (top concentration 46.0829 µM)	true (1)

Query string: I'd appreciate it if you could say whether CC[C@]12CC[C@H]3[C@@H](CCC/4=C/C(=O)CC[C@H]34)[C@@H]1\C=C/[C@@]2(O)C#C [Gestodene] (top concentration 46.0829 µM) has area under the dose-response curve at least equal to 500.
Result string: true (1)
